Ht values, listed per item
# Organism: Rattus norvegicus
# procedureSummary: Open TG-GATES - Regimen: Single
# Type: toxicity, organism-based, Sprague-Dawley
# Parameters: regimen Single, gender Male, age 6 weeks
# testParameters: in vivo, po, 0 mg/kg, 24 h, tissue Blood, route gavage, dose level Control
Enter your answer as a number in %; do not include the unit.

The cases that follow already have their Ht on record.
Nc1c2c(nc3ccccc13)CCCC2 [TACRINE]    38.7
CC(C)NNC(=O)c1ccncc1 [IPRONIAZID]    39.1
Cc1nnc2n1-c1ccc(Cl)cc1C(c1ccccc1Cl)=NC2 [TRIAZOLAM]    40.3
CN1C(=O)CCS(=O)(=O)C1c1ccc(Cl)cc1 (stereo not drawn) [CHLORMEZANONE]    39.1
CN/C(=N/CCSCc1nc[nH]c1C)NC#N [CIMETIDINE]    40
CNC(=C[N+](=O)[O-])NCCSCc1ccc(CN(C)C)o1 [RANITIDINE]    39.1
CCOc1ccc(NC(C)=O)cc1 [PHENACETIN]    40.1

Reported Ht, compound COC(=O)C1=C(C)NC(C)=C(C(=O)OC)C1c1ccccc1[N+](=O)[O-] [NIFEDIPINE] : ____
40.6

* * *

# Species on record: Rattus norvegicus
# procedureSummary: Open TG-GATES - Regimen: Single
# Format: toxicity, organism-based, Sprague-Dawley
# Set-up: regimen Single, gender Male, age 6 weeks
# testParameters: in vivo, po, 0 mg/kg, 6 h, tissue Plasma, route gavage, dose level Control
LDH values, listed per item
Enter your answer as a number in IU/L; do not include the unit.

The cases that follow already have their LDH on record.
O=C(OC[C@H]1O[C@@H](OC(=O)c2cc(O)c(O)c(OC(=O)c3cc(O)c(O)c(O)c3)c2)[C@H](OC(=O)c2cc(O)c(O)c(OC(=O)c3cc(O)c(O)c(O)c3)c2)[C@@H](OC(=O)c2cc(O)c(O)c(OC(=O)c3cc(O)c(O)c(O)c3)c2)[C@@H]1OC(=O)c1cc(O)c(O)c(OC(=O)c2cc(O)c(O)c(O)c2)c1)c1cc(O)c(O)c(OC(=O)c2cc(O)c(O)c(O)c2)c1    83
CN1C(=O)CCS(=O)(=O)C1c1ccc(Cl)cc1 (stereo not drawn)    57.8

Now for a further molecule.
Reported LDH, molecule CN/C(=N/CCSCc1nc[nH]c1C)NC#N : ____
161.6

* * *

# Species on record: Rattus norvegicus
# procedureSummary: Open TG-GATES - Regimen: Daily Repeat
# Assay type: toxicity, organism-based, Sprague-Dawley
# Parameters: regimen Daily Repeat, gender Male, age 6 weeks
# testParameters: in vivo, po, 0 mg/kg, […], tissue Liver, route gavage, dose level Control, time 14 day
LIVER values, listed per item
Enter your answer as a number in g; do not include the unit.

The cases that follow already have their LIVER on record.
Brc1ccccc1 [BROMOBENZENE]    12.9
CN(C)CCC(c1ccc(Cl)cc1)c1ccccn1 (stereo not given) [CHLORPHENIRAMINE]    12.9
Cc1nnc2n1-c1ccc(Cl)cc1C(c1ccccc1Cl)=NC2 [TRIAZOLAM]    13.3
Nc1c2c(nc3ccccc13)CCCC2 [TACRINE]    12.4

Now for a further compound.
Reported LIVER, compound CN/C(=N/CCSCc1nc[nH]c1C)NC#N [CIMETIDINE] : ____
14.1

* * *

# Species: Rattus norvegicus
# procedureSummary: Open TG-GATES - Regimen: Daily Repeat
# Format: toxicity, organism-based, Sprague-Dawley
# Parameters: regimen Daily Repeat, gender Male, age 6 weeks
# testParameters: in vivo, po, 100 mg/kg, 72 h, tissue Plasma, route gavage, dose level Low, time 3 day
GLC values, listed per item
Please report the result as a number followed by the unit.

The cases that follow already have their GLC on record.
O=C(OC[C@H]1O[C@@H](OC(=O)c2cc(O)c(O)c(OC(=O)c3cc(O)c(O)c(O)c3)c2)[C@H](OC(=O)c2cc(O)c(O)c(OC(=O)c3cc(O)c(O)c(O)c3)c2)[C@@H](OC(=O)c2cc(O)c(O)c(OC(=O)c3cc(O)c(O)c(O)c3)c2)[C@@H]1OC(=O)c1cc(O)c(O)c(OC(=O)c2cc(O)c(O)c(O)c2)c1)c1cc(O)c(O)c(OC(=O)c2cc(O)c(O)c(O)c2)c1 [TANNIC ACID]    204.8 mg/dL
COC(=O)C1=C(C)NC(C)=C(C(=O)OC)C1c1ccccc1[N+](=O)[O-] [NIFEDIPINE]    173.4 mg/dL
CCOc1ccc(NC(C)=O)cc1 [PHENACETIN]    172.8 mg/dL

Reported GLC, compound CN/C(=N/CCSCc1nc[nH]c1C)NC#N [CIMETIDINE] : ____
195.6 mg/dL

Reported GLC, compound CNC(=C[N+](=O)[O-])NCCSCc1ccc(CN(C)C)o1 [RANITIDINE] : ____
192.8 mg/dL

* * *

Plat values, listed per item
# Species: Rattus norvegicus
# procedureSummary: Open TG-GATES - Regimen: Daily Repeat
# Type: toxicity, organism-based, Sprague-Dawley
# Parameters: regimen Daily Repeat, gender Male, age 6 weeks
# testParameters: in vivo, po, 0 mg/kg, 72 h, tissue Blood, route gavage, dose level Control, time 3 day
Enter your answer as a number in x10_4/uL; do not include the unit.

Brc1ccccc1 [BROMOBENZENE]    116.4
COC(=O)C1=C(C)NC(C)=C(C(=O)OC)C1c1ccccc1[N+](=O)[O-] [NIFEDIPINE]    122.9
Cc1nnc2n1-c1ccc(Cl)cc1C(c1ccccc1Cl)=NC2 [TRIAZOLAM]    121.4

Reported Plat, molecule CN1C(=O)CCS(=O)(=O)C1c1ccc(Cl)cc1 (stereo not given) [CHLORMEZANONE] : ____
114.7

Reported Plat, molecule O=C(OC[C@H]1O[C@@H](OC(=O)c2cc(O)c(O)c(OC(=O)c3cc(O)c(O)c(O)c3)c2)[C@H](OC(=O)c2cc(O)c(O)c(OC(=O)c3cc(O)c(O)c(O)c3)c2)[C@@H](OC(=O)c2cc(O)c(O)c(OC(=O)c3cc(O)c(O)c(O)c3)c2)[C@@H]1OC(=O)c1cc(O)c(O)c(OC(=O)c2cc(O)c(O)c(O)c2)c1)c1cc(O)c(O)c(OC(=O)c2cc(O)c(O)c(O)c2)c1 [TANNIC ACID] : ____
118.4

* * *

# Organism: Rattus norvegicus
# procedureSummary: Open TG-GATES - Regimen: Daily Repeat
# Assay type: toxicity, organism-based, Sprague-Dawley
# Design: regimen Daily Repeat, gender Male, age 6 weeks
# testParameters: in vivo, po, 0 mg/kg, 72 h, tissue Blood, route gavage, dose level Control, time 3 day
Ht values, listed per item
Enter your answer as a number in %; do not include the unit.

Reported Ht, molecule CN/C(=N/CCSCc1nc[nH]c1C)NC#N : ____
40.5

Reported Ht, molecule CCCc1cc(=O)[nH]c(=S)[nH]1 : ____
40.7

Reported Ht, molecule CCOc1ccc(NC(C)=O)cc1 : ____
39.8

Reported Ht, molecule CNC(=C[N+](=O)[O-])NCCSCc1ccc(CN(C)C)o1 : ____
40.4

* * *

# Species on record: Rattus norvegicus
# procedureSummary: Open TG-GATES - Regimen: Daily Repeat
# Assay type: toxicity, organism-based, Sprague-Dawley
# Design: regimen Daily Repeat, gender Male, age 6 weeks
# testParameters: in vivo, po, 100 mg/kg, 72 h, tissue Blood, route gavage, dose level Low, time 3 day
Ret values, listed per item
Enter your answer as a number in %; do not include the unit.

Reported Ret, compound CCOc1ccc(NC(C)=O)cc1 : ____
5.2

* * *

# Species on record: Rattus norvegicus
# procedureSummary: Open TG-GATES - Regimen: Single
# Assay type: toxicity, organism-based, Sprague-Dawley
# Design: regimen Single, gender Male, age 6 weeks
# testParameters: in vivo, po, 100 mg/kg, 24 h, route gavage, dose level Low
endpointLabel: TERMINAL_BW (g)
Enter your answer as a number in g; do not include the unit.

The cases that follow already have their TERMINAL_BW on record.
Cc1nnc2n1-c1ccc(Cl)cc1C(c1ccccc1Cl)=NC2    208.4
COC(=O)C1=C(C)NC(C)=C(C(=O)OC)C1c1ccccc1[N+](=O)[O-]    206.2
CNC(=C[N+](=O)[O-])NCCSCc1ccc(CN(C)C)o1    226.3

Now for a further molecule.
Reported TERMINAL_BW, molecule O=C(OC[C@H]1O[C@@H](OC(=O)c2cc(O)c(O)c(OC(=O)c3cc(O)c(O)c(O)c3)c2)[C@H](OC(=O)c2cc(O)c(O)c(OC(=O)c3cc(O)c(O)c(O)c3)c2)[C@@H](OC(=O)c2cc(O)c(O)c(OC(=O)c3cc(O)c(O)c(O)c3)c2)[C@@H]1OC(=O)c1cc(O)c(O)c(OC(=O)c2cc(O)c(O)c(O)c2)c1)c1cc(O)c(O)c(OC(=O)c2cc(O)c(O)c(O)c2)c1 : ____
201.1

This collection of values is drawn from ChEMBL document CHEMBL3885861.
